# Test Name: Single-dose
# Format: in vivo, human
# Measurement Setup: human, plasma, po, 1 mg
Result Type: Tmax (h)
Give bare numbers, in h.

For the compound C[C@H](N[C@@H](CCc1ccccc1)C(=O)O)C(=O)N1[C@H](C(=O)O)C[C@H]2CCCC[C@@H]21 [Trandolaprilat, trandolaprilat] , report Tmax.
6.7
